Target or system S. aureus ATCC 33591; recorded quantity MIC.

A selection of reference data follows.
>>> data_value("C[C@@H]1CC[C@@]2(OC1)O[C@H]1C[C@H]3[C@@H]4CC=C5C[C@@H](O[C@@H]6CC[C@@H](O)[C@@H](CO)O6)CC[C@]5(C)[C@H]4CC[C@]3(C)[C@H]1[C@@H]2C")
"256 µg/mL"
>>> data_value("C[C@@H]1CC[C@@]2(OC1)O[C@H]1C[C@H]3[C@@H]4CC=C5C[C@@H](O[C@@H]6C=C[C@H](O)CO6)CC[C@]5(C)[C@H]4CC[C@]3(C)[C@H]1[C@@H]2C")
"> 256 µg/mL"
>>> data_value("C[C@@H]1CC[C@@]2(OC1)O[C@H]1C[C@H]3[C@@H]4CC=C5C[C@@H](O[C@@H]6C=C[C@H](O)[C@@H](CO)O6)CC[C@]5(C)[C@H]4CC[C@]3(C)[C@H]1[C@@H]2C")
"> 256 µg/mL"

Consider the record given below.
stdin: Give S. aureus ATCC 33591 MIC for `C[C@@H]1CC[C@@]2(OC1)O[C@H]1C[C@H]3[C@@H]4CC=C5C[C@@H](O[C@@H]6C=C[C@@H](O)CO6)CC[C@]5(C)[C@H]4CC[C@]3(C)[C@H]1[C@@H]2C`
stdout: > 256 µg/mL

====

System: prostate cancer cells (PC3 line)
Test: MTT cytotoxicity assay, PC3
Assay type: cell-based, human
Conditions: Homo sapiens, PC-3; PC3 cells, 48 h treatment, MTT
Measured parameter: pIC50
pIC50 here is simply -log10 of the concentration when that concentration is written in mol/L.

A selection of reference data follows.
>>> data_value("C[C@@H]1CC[C@@]2(OC1)O[C@H]1C[C@H]3[C@@H]4CC=C5C[C@@H](O[C@H]6CC[C@H](O)[C@H](C)O6)CC[C@]5(C)[C@H]4CC[C@]3(C)[C@H]1[C@@H]2C")
4.52
>>> data_value("C[C@@H]1CC[C@@]2(OC1)O[C@H]1C[C@H]3[C@@H]4CC=C5C[C@@H](O[C@@H]6CC[C@@H](O)[C@@H](CO)O6)CC[C@]5(C)[C@H]4CC[C@]3(C)[C@H]1[C@@H]2C")
4.39

stdin: Give prostate cancer cells (PC3 line) pIC50 for `C[C@@H]1CC[C@@]2(OC1)O[C@H]1C[C@H]3[C@@H]4CC=C5C[C@@H](O[C@@H]6CC[C@H](O)[C@@H](CO)O6)CC[C@]5(C)[C@H]4CC[C@]3(C)[C@H]1[C@@H]2C`
stdout: 4.65

====

Test system: S. aureus ATCC 12598
Experiment: MIC, broth dilution method
Assay type: cell-based
Conditions: Staphylococcus aureus, ATCC12598; MHB II, 18 h, 37 °C; read-out: Minimum inhibitory concentration S. aureus ATCC 12598
Measured parameter: MIC

>>> data_value("C[C@@H]1CC[C@@]2(OC1)O[C@H]1C[C@H]3[C@@H]4CC=C5C[C@@H](O[C@@H]6CC[C@@H](O)[C@@H](CO)O6)CC[C@]5(C)[C@H]4CC[C@]3(C)[C@H]1[C@@H]2C")
"256 µg/mL"
>>> data_value("C[C@@H]1CC[C@@]2(OC1)O[C@H]1C[C@H]3[C@@H]4CC=C5C[C@@H](O[C@H]6C=C[C@H](O)[C@H](C)O6)CC[C@]5(C)[C@H]4CC[C@]3(C)[C@H]1[C@@H]2C")
"> 256 µg/mL"

stdin: Give S. aureus ATCC 12598 MIC for `C[C@@H]1CC[C@@]2(OC1)O[C@H]1C[C@H]3[C@@H]4CC=C5C[C@@H](O[C@@H]6C=C[C@@H](O)CO6)CC[C@]5(C)[C@H]4CC[C@]3(C)[C@H]1[C@@H]2C`
stdout: > 256 µg/mL

stdin: Give S. aureus ATCC 12598 MIC for `C[C@@H]1CC[C@@]2(OC1)O[C@H]1C[C@H]3[C@@H]4CC=C5C[C@@H](O[C@@H]6C=C[C@H](O)[C@@H](CO)O6)CC[C@]5(C)[C@H]4CC[C@]3(C)[C@H]1[C@@H]2C`
stdout: > 256 µg/mL

stdin: Give S. aureus ATCC 12598 MIC for `C[C@@H]1CC[C@@]2(OC1)O[C@H]1C[C@H]3[C@@H]4CC=C5C[C@@H](O[C@@H]6C=C[C@@H](O)[C@@H](CO)O6)CC[C@]5(C)[C@H]4CC[C@]3(C)[C@H]1[C@@H]2C`
stdout: > 256 µg/mL

====

Entries and their pIC50
Test system: prostate cancer cells (PC3 line)
Test: MTT cytotoxicity assay, PC3
Type: cell-based, human
Details: Homo sapiens, PC-3; PC3 cells, 48 h treatment, MTT
pIC50 here is simply -log10 of the concentration when that concentration is written in mol/L.

stdin: Give prostate cancer cells (PC3 line) pIC50 for `C[C@@H]1CC[C@@]2(OC1)O[C@H]1C[C@H]3[C@@H]4CC=C5C[C@@H](O[C@H]6C=C[C@H](O)[C@H](C)O6)CC[C@]5(C)[C@H]4CC[C@]3(C)[C@H]1[C@@H]2C`
stdout: 4.30

====

Target or system S. aureus ATCC 12598; recorded quantity MIC.

A selection of reference data follows.
>>> data_value("C[C@@H]1CC[C@@]2(OC1)O[C@H]1C[C@H]3[C@@H]4CC=C5C[C@@H](O[C@@H]6CC[C@H](O)CO6)CC[C@]5(C)[C@H]4CC[C@]3(C)[C@H]1[C@@H]2C")
"256 µg/mL"
>>> data_value("C[C@@H]1CC[C@@]2(OC1)O[C@H]1C[C@H]3[C@@H]4CC=C5C[C@@H](O[C@H]6C=C[C@@H](O)[C@H](C)O6)CC[C@]5(C)[C@H]4CC[C@]3(C)[C@H]1[C@@H]2C")
"> 256 µg/mL"
>>> data_value("C[C@@H]1CC[C@@]2(OC1)O[C@H]1C[C@H]3[C@@H]4CC=C5C[C@@H](O[C@@H]6C=C[C@H](O)CO6)CC[C@]5(C)[C@H]4CC[C@]3(C)[C@H]1[C@@H]2C")
"> 256 µg/mL"

Consider the record given below.
stdin: What value of MIC has been recorded for this entry: `C[C@@H]1CC[C@@]2(OC1)O[C@H]1C[C@H]3[C@@H]4CC=C5C[C@@H](O[C@@H]6CC[C@H](O)[C@@H](CO)O6)CC[C@]5(C)[C@H]4CC[C@]3(C)[C@H]1[C@@H]2C`
stdout: > 256 µg/mL

====

System: S. aureus ATCC 43300
Assay: MIC, broth dilution method
Type: cell-based
Settings: Staphylococcus aureus, ATCC43300; MHB II, 18 h, 37 °C; read-out: Minimum inhibitory concentration S. aureus ATCC 43300
Entries and their MIC

>>> data_value("C[C@@H]1CC[C@@]2(OC1)O[C@H]1C[C@H]3[C@@H]4CC=C5C[C@@H](OC6CC[C@H](O)CO6)CC[C@]5(C)[C@H]4CC[C@]3(C)[C@H]1[C@@H]2C (stereo partly drawn)")
"> 256 µg/mL"
>>> data_value("C[C@@H]1CC[C@@]2(OC1)O[C@H]1C[C@H]3[C@@H]4CC=C5C[C@@H](O[C@H]6C=C[C@H](O)[C@H](C)O6)CC[C@]5(C)[C@H]4CC[C@]3(C)[C@H]1[C@@H]2C")
"> 256 µg/mL"

Consider the record given below.
stdin: What value of MIC has been recorded for this entry: `C[C@@H]1CC[C@@]2(OC1)O[C@H]1C[C@H]3[C@@H]4CC=C5C[C@@H](O[C@@H]6CC[C@H](O)CO6)CC[C@]5(C)[C@H]4CC[C@]3(C)[C@H]1[C@@H]2C`
stdout: 128 µg/mL

====

Entries and their pIC50
Tested on: prostate cancer cells (PC3 line)
Assay: MTT cytotoxicity assay, PC3
Assay type: cell-based, human
Conditions: Homo sapiens, PC-3; PC3 cells, 48 h treatment, MTT
pIC50 here is simply -log10 of the concentration when that concentration is written in mol/L.

A selection of reference data follows.
>>> data_value("C[C@@H]1CC[C@@]2(OC1)O[C@H]1C[C@H]3[C@@H]4CC=C5C[C@@H](O[C@@H]6C=C[C@@H](O)[C@@H](CO)O6)CC[C@]5(C)[C@H]4CC[C@]3(C)[C@H]1[C@@H]2C")
4.67
>>> data_value("C[C@@H]1CC[C@@]2(OC1)O[C@H]1C[C@H]3[C@@H]4CC=C5C[C@@H](O[C@@H]6CC[C@H](O)CO6)CC[C@]5(C)[C@H]4CC[C@]3(C)[C@H]1[C@@H]2C")
4.14
>>> data_value("C[C@@H]1CC[C@@]2(OC1)O[C@H]1C[C@H]3[C@@H]4CC=C5C[C@@H](O[C@H]6CC[C@@H](O)[C@H](C)O6)CC[C@]5(C)[C@H]4CC[C@]3(C)[C@H]1[C@@H]2C")
4.58
>>> data_value("C[C@@H]1CC[C@@]2(OC1)O[C@H]1C[C@H]3[C@@H]4CC=C5C[C@@H](O[C@@H]6C=C[C@@H](O)CO6)CC[C@]5(C)[C@H]4CC[C@]3(C)[C@H]1[C@@H]2C")
4.56

Consider the record given below.
stdin: What value of pIC50 has been recorded for this entry: C[C@@H]1CC[C@@]2(OC1)O[C@H]1C[C@H]3[C@@H]4CC=C5C[C@@H](OC6CC[C@H](O)CO6)CC[C@]5(C)[C@H]4CC[C@]3(C)[C@H]1[C@@H]2C (some centres unmarked)
stdout: 4.63
